tested on: BRO human melanoma; experiment: In vitro cytotoxicity, MTT assay, 72 h continuous exposure; format: cell-based; details: average over runs, value above 50 = 50% inhibition not achieved at 50 μg/ml
We use 20 µg/mL as the dividing line for average IC50 BRO: on or above the line is satisfied, below is not satisfied.

[
  {
    "compound": "CN1CCN(C(=O)CCC(=O)Nc2cc3c(c4ccccc24)-c2ccc4ccccc4c2C3=O)CC1 [Tx-50]",
    "category": "not satisfied"
  },
  {
    "compound": "CN1CCN(C(=O)C=CC(=O)Nc2cc3c(c4ccccc24)-c2ccc4ccccc4c2C3)CC1 [Tx-47]",
    "category": "not satisfied"
  },
  {
    "compound": "CN1CCN(C(=O)CCC(=O)Nc2cc3c(c4ccccc24)-c2ccc4ccccc4c2C3)CC1.Cl [Tx-49]",
    "category": "not satisfied"
  },
  {
    "compound": "O=C(CCC(=O)N1CCCCC1)Nc1cc2c(c3ccccc13)-c1ccc3ccccc3c1C2 [Tx-38]",
    "category": "satisfied"
  },
  {
    "compound": "CN1CCN(C(=O)CCC(=O)Nc2cc3c(c4ccccc24)-c2ccc4ccccc4c2C3)CC1 [Tx-37]",
    "category": "not satisfied"
  },
  {
    "compound": "O=C(CCC(=O)N1CCCCC1)Nc1cc2c(c3ccccc13)-c1ccc3ccccc3c1C2=O [Tx-51]",
    "category": "satisfied"
  },
  {
    "compound": "O=C(CCC(=O)N1CCCCC1)Nc1cc2c(c3ccccc13)-c1ccc3ccccc3c1C2O (stereo not drawn) [Tx-67]",
    "category": "not satisfied"
  },
  {
    "compound": "O=C(C=CC(=O)N1CCCCC1)Nc1cc2c(c3ccccc13)-c1ccc3ccccc3c1C2 [Tx-48]",
    "category": "satisfied"
  },
  {
    "compound": "CN1CCN(C(=O)CCC(=O)Nc2cc3c(c4ccccc24)-c2ccc4ccccc4c2C3O)CC1 (stereo not drawn) [Tx-66]",
    "category": "not satisfied"
  }
]
